System: RAW-Dual (murine macrophage reporter line)
Test: NF-kB reporter (SEAP) activity fold change vs agonist alone; higher = enhanced NF-kB activity
Conditions: modulator concentration 10 µM; agonist: MPLA […]
Measured NF-kB reporter, listed per entry for reference.
Number only, please.

Reference set (3 entries):
Smiles Representation	NF-kB reporter
CS(=O)(=O)N(CC(=O)Nc1ccccc1Br)c1ccc(Cl)c(C(F)(F)F)c1	0.77
COC(c1ccccc1)(c1ccccc1)[C@H](Oc1nc(C)cc(C)n1)C(=O)O	0.901
Cc1cccc(NC(=O)Cc2nnc(NC(=O)Nc3ccc(F)cc3)s2)c1	0.917

Query compound follows.
Field NF-kB reporter (entry "CCN(CC)c1ccc(C=NNC(=O)c2ccncc2)cc1" ) reads 1.05
